System: L1210
Test: Antitumor activity against Leukemia L1210 cells in male BDF1 mice at the dose of 100 mg/kg/day x5 (i.p.) expressed as maximal increase in life-span
Type: functional, Mus musculus
Conditions: route intraperitoneal
measure name: ILS30
Please give only the number in your answer, with no unit.

Below, 6 molecules whose answers are already recorded.
- molecule: "C=CCN(C(=O)N(CCCl)N=O)C1OC(CO)C(OC2OC(CO)C(O)C(O)C2O)C(O)C1O (stereo not drawn)"
  ILS30: 2
- molecule: "CCCCCN(C(=O)N(CCCl)N=O)C1OC(CO)C(OC2OC(CO)C(O)C(O)C2O)C(O)C1O (stereo not drawn)"
  ILS30: 3.5
- molecule: "O=NN(CCCl)C(=O)N(CC1CC1)C1OC(CO)C(OC2OC(CO)C(O)C(O)C2O)C(O)C1O (stereo not drawn)"
  ILS30: 3.5
- molecule: "CC(C)CN(C(=O)N(CCCl)N=O)C1OC(CO)C(OC2OC(CO)C(O)C(O)C2O)C(O)C1O (stereo in doubt; 37)"
  ILS30: 1.2
- molecule: "CCCCN(C(=O)N(CCCl)N=O)C1OC(CO)C(OC2OC(CO)C(O)C(O)C2O)C(O)C1O (stereo not drawn)"
  ILS30: 4.5
- molecule: "CCC(C)N(C(=O)N(CCCl)N=O)C1OC(CO)C(OC2OC(CO)C(O)C(O)C2O)C(O)C1O (stereo not drawn)"
  ILS30: 1.5

Enquiry: # lookup: ILS30 of O=NN(CCCl)C(=O)N(CC1CCCCC1)C1OC(CO)C(OC2OC(CO)C(O)C(O)C2O)C(O)C1O (stereo not drawn)
Return: 8

Enquiry: # lookup: ILS30 of CCOCCN(C(=O)N(CCCl)N=O)C1OC(CO)C(OC2OC(CO)C(O)C(O)C2O)C(O)C1O (stereo not drawn)
Return: 2.7

* * *

Test system: L1210
Experiment: Antitumor activity against Leukemia L1210 cells in male BDF1 mice at the dose of 100 mg/kg/day x5 (i.p.) expressed as maximal increase in life-span
Assay type: functional, Mus musculus
Conditions: route intraperitoneal
Entries and their measured ILS30 follow.
Please give only the number in your answer, with no unit.

- compound: "CC(C)N(C(=O)N(CCCl)N=O)C1OC(CO)C(OC2OC(CO)C(O)C(O)C2O)C(O)C1O (stereo not drawn)"
  target: "L1210"
  endpoint value: 5.4

Enquiry: # lookup: ILS30 of CCCN(C(=O)N(CCCl)N=O)C1OC(CO)C(OC2OC(CO)C(O)C(O)C2O)C(O)C1O (stereo not drawn)
Return: 4.9

Enquiry: # lookup: ILS30 of CN(C(=O)N(CCCl)N=O)C1OC(CO)C(OC2OC(CO)C(O)C(O)C2O)C(O)C1O (stereo not drawn)
Return: 8.8

* * *

Assay: Therapeutic index value for anti-L1210 activity.
Details: mouse, read-out: TI
Entries and their measured selectivity ratio follow.
Please give only the number in your answer, with no unit.

- molecule: "Cc1ncc(CNC(=O)N(CCCl)N=O)c(N)n1"
  endpoint value: 9.3
- molecule: "CC(C)CN(C(=O)N(CCCl)N=O)C1OC(CO)C(O)C(O)C1O (stereo not drawn)"
  endpoint value: 50
- molecule: "CC(C)CN(C(=O)N(CCCl)N=O)C1OC(COC2OC(CO)C(O)C(O)C2O)C(O)C(O)C1O (stereo not drawn)"
  endpoint value: 1.1
- molecule: "COCCN(C(=O)N(CCCl)N=O)C1OC(CO)C(OC2OC(CO)C(O)C(O)C2O)C(O)C1O (stereo not drawn)"
  endpoint value: 11.8
- molecule: "CCC(C)N(C(=O)N(CCCl)N=O)C1OC(CO)C(OC2OC(CO)C(O)C(O)C2O)C(O)C1O (stereo not drawn)"
  endpoint value: 66.7
- molecule: "O=NN(CCCl)C(=O)N(CC1CC1)C1OC(CO)C(OC2OC(CO)C(O)C(O)C2O)C(O)C1O (stereo not drawn)"
  endpoint value: 28.6
- molecule: "CCCCCCN(C(=O)N(CCCl)N=O)C1OC(CO)C(OC2OC(CO)C(O)C(O)C2O)C(O)C1O (stereo not drawn)"
  endpoint value: 3.6
- molecule: "O=NN(CCCl)C(=O)N(CC1CCCCC1)C1OC(CO)C(OC2OC(CO)C(O)C(O)C2O)C(O)C1O (stereo not drawn)"
  endpoint value: 12.5
- molecule: "O=NN(CCCl)C(=O)N(Cc1ccc(Cl)cc1)C1OC(CO)C(OC2OC(CO)C(O)C(O)C2O)C(O)C1O (stereo not drawn)"
  endpoint value: 10
- molecule: "CCCCN(C(=O)N(CCCl)N=O)C1OC(CO)C(OC2OC(CO)C(O)C(O)C2O)C(O)C1O (stereo not drawn)"
  endpoint value: 22.2

Shift focus to the following entry.
Enquiry: # lookup: selectivity ratio of CCCN(C(=O)N(CCCl)N=O)C1OC(CO)C(OC2OC(CO)C(O)C(O)C2O)C(O)C1O (stereo not drawn)
Return: 20.4

* * *

Experiment: Therapeutic index value for anti-Ehrlich activity.
Conditions: mouse; read-out: TI
measure name: selectivity ratio
Please give only the number in your answer, with no unit.

Below, 4 molecules whose answers are already recorded.
- molecule: "CCCN(C(=O)N(CCCl)N=O)C1OC(CO)C(OC2OC(CO)C(O)C(O)C2O)C(O)C1O (stereo not given)"
  selectivity ratio: 64
- molecule: "O=NN(CCCl)C(=O)N(CC1CCCCC1)C1OC(CO)C(OC2OC(CO)C(O)C(O)C2O)C(O)C1O (stereo not given)"
  selectivity ratio: 32
- molecule: "O=NN(CCCl)C(=O)N[C@@H]1O[C@H](CO)[C@@H](O)[C@H](O)[C@H]1O"
  selectivity ratio: 32
- molecule: "O=NN(CCCl)C(=O)N(CC1CC1)C1OC(CO)C(OC2OC(CO)C(O)C(O)C2O)C(O)C1O (stereo not given)"
  selectivity ratio: 64

Enquiry: # lookup: selectivity ratio of O=NN(CCCl)C(=O)NC1CCCCC1
Return: 4

* * *

Test: […] required for antitumor activity against Ehrlich ascites carcinoma cells in […] mice.
Type: functional, Mus musculus
Entries and their measured MED follow.
// unit must come after the numeric part

- compound: "CCC(C)N(C(=O)N(CCCl)N=O)C1OC(CO)C(OC2OC(CO)C(O)C(O)C2O)C(O)C1O (centres undefined)"
  endpoint value: "1.56 mg kg-1 5day-1"

Shift focus to the following entry.
Enquiry: # lookup: MED of O=NN(CCCl)C(=O)N(Cc1ccc(Cl)cc1)C1OC(CO)C(OC2OC(CO)C(O)C(O)C2O)C(O)C1O (centres undefined)
Return: 1.56 mg kg-1 5day-1

* * *

Experiment: Therapeutic index value for anti-L1210 activity.
Details: mouse, read-out: TI
measure name: selectivity ratio
Please give only the number in your answer, with no unit.

Enquiry: # lookup: selectivity ratio of CCCCCN(C(=O)N(CCCl)N=O)C1OC(CO)C(OC2OC(CO)C(O)C(O)C2O)C(O)C1O (centres undefined)
Return: 28.6

Enquiry: # lookup: selectivity ratio of O=NN(CCCl)C(=O)NC1CCCCC1 [LOMUSTINE]
Return: 5.1

Enquiry: # lookup: selectivity ratio of C=CCCN(C(=O)N(CCCl)N=O)C1OC(CO)C(OC2OC(CO)C(O)C(O)C2O)C(O)C1O (centres undefined)
Return: 64.5

Enquiry: # lookup: selectivity ratio of CC(C)N(C(=O)N(CCCl)N=O)C1OC(CO)C(OC2OC(CO)C(O)C(O)C2O)C(O)C1O (centres undefined)
Return: 18.5

* * *

Assay: Therapeutic index value for anti-Ehrlich activity.
Settings: mouse; read-out: TI
Entries and their measured selectivity ratio follow.
Please give only the number in your answer, with no unit.

Below, 4 molecules whose answers are already recorded.
- molecule: "CCCCN(C(=O)N(CCCl)N=O)C1OC(CO)C(OC2OC(CO)C(O)C(O)C2O)C(O)C1O (configuration not stated)"
  endpoint value: 32
- molecule: "CCC(C)N(C(=O)N(CCCl)N=O)C1OC(CO)C(OC2OC(CO)C(O)C(O)C2O)C(O)C1O (configuration not stated)"
  endpoint value: 128
- molecule: "Cc1ncc(CNC(=O)N(CCCl)N=O)c(N)n1"
  endpoint value: 8
- molecule: "CC(C)N(C(=O)N(CCCl)N=O)C1OC(CO)C(OC2OC(CO)C(O)C(O)C2O)C(O)C1O (configuration not stated)"
  endpoint value: 32

Enquiry: # lookup: selectivity ratio of C=CCN(C(=O)N(CCCl)N=O)C1OC(CO)C(OC2OC(CO)C(O)C(O)C2O)C(O)C1O (configuration not stated)
Return: 64

Enquiry: # lookup: selectivity ratio of CCCCCCN(C(=O)N(CCCl)N=O)C1OC(CO)C(OC2OC(CO)C(O)C(O)C2O)C(O)C1O (configuration not stated)
Return: 32

* * *

Test: Therapeutic index value for anti-L1210 activity.
Details: mouse, read-out: TI
Would you please tag the item Met when its selectivity ratio is 30 or above, and Not met when it is below?

For orientation, consider the following solved cases.
- molecule: "COCCCN(C(=O)N(CCCl)N=O)C1OC(CO)C(OC2OC(CO)C(O)C(O)C2O)C(O)C1O (configuration not stated)"
  label: "Not met"
- molecule: "CN(C(=O)N(CCCl)N=O)C1OC(CO)C(OC2OC(CO)C(O)C(O)C2O)C(O)C1O (configuration not stated)"
  label: "Not met"
- molecule: "O=NN(CCCl)C(=O)N(CC1CCCO1)C1OC(CO)C(OC2OC(CO)C(O)C(O)C2O)C(O)C1O (configuration not stated)"
  label: "Met"
- molecule: "CCOCCN(C(=O)N(CCCl)N=O)C1OC(CO)C(OC2OC(CO)C(O)C(O)C2O)C(O)C1O (configuration not stated)"
  label: "Met"
- molecule: "C=C(C)CN(C(=O)N(CCCl)N=O)C1OC(CO)C(OC2OC(CO)C(O)C(O)C2O)C(O)C1O (configuration not stated)"
  label: "Met"

Enquiry: Does C=CCN(C(=O)N(CCCl)N=O)C1OC(CO)C(OC2OC(CO)C(O)C(O)C2O)C(O)C1O (configuration not stated) have a reported selectivity ratio of at least 30?
Return: Met

Enquiry: Does O=NN(CCCl)C(=O)N[C@@H]1O[C@H](CO)[C@@H](O)[C@H](O)[C@H]1O have a reported selectivity ratio of at least 30?
Return: Not met
